All figures here come from patent US20240376156A1.

# Measured On: T1, FGFR2 ectodomain (residues 147-366) with C-terminal TEV/His/AviTag (human, UniProt P21802 147-366)
# T1 construct: range 147-366; also called Fibroblast growth factor receptor 2
# Assay Comment: biolayer interferometry
pKd: −log10 of the molar value.
Readout Label: pKd

INPUT: Entry FGFR2_mb (optimized FGFR2 binder, purified from E. coli) (designed binder, also called FGFR2_mb3) MSHHHHHHHHSENLYFQSGGGDRRKEMDKVYRTAFKRITSTPDKEKRKEVVKEATEQLRRIAKDEEEKKKAAYMILFLKTLG needs its pKd filled in; supply it.
OUTPUT: ≥ 9.00
